B1: BTBD1 (parent)
chain: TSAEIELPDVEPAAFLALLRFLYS

Variants of: B1
Test: protein stability index of a GFP-peptide fusion (GPS, HEK-293T) (PSI 1-6); higher = more stable;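 also: lentivirally expressed fusions sorted by FACS into six bins by GFP to DsRed ratio, PSI derived from sequencing read proportions per bin multiplied by bin number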
Settings: c terminus: a fixed tail appended
Label rule, in plain words: protein stability index of 2 and up is class 1, under 2 is class 0.

T1I = class 0

Then there is this variant:
Query :: Reported protein stability index reaches at least 2 for F15Y ?
Result :: class 1

Sourced from the supplement of paper PMC10567573
